target.or.system: human recombinant dopamine D3 receptor (Homo sapiens (Human))
Sequence (P35462 whole entry): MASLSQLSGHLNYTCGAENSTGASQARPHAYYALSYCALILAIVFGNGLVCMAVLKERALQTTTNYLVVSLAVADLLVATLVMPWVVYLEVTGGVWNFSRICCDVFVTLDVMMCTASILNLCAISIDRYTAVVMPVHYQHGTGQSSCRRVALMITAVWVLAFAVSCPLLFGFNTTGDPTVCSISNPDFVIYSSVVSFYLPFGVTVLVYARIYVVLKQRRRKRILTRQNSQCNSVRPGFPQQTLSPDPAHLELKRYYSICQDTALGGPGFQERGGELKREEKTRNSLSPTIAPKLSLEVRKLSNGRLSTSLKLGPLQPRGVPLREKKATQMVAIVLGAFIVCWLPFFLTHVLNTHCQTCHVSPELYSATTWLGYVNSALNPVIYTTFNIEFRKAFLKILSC
test.description: Test of binding inhibition for the human dopamine D3 receptor ([3H]-Metylspiperone SPA binding)
experimental.conditions: [3H]-Metylspiperone 2 nM, Jump-In HEK cell membranes, read-out: hD3_Ki
pKi: −log10 of the molar value.
Reported pKi values for a set of molecules
experimental.readout: pKi

smiles.repr: Cc1nnc(CC(=O)N[C@H]2CC[C@H](CCN3CCc4sc(CCC(F)(F)F)nc4C3)CC2)o1
target.or.system: human recombinant dopamine D3 receptor (Homo sapiens (Human))
number: 8.96
--
smiles.repr: Cc1nnc(CC(=O)N[C@H]2CC[C@](F)(CCN3CCc4nc(OCC(F)(F)F)sc4CC3)CC2)o1
target.or.system: human recombinant dopamine D3 receptor (Homo sapiens (Human))
number: 9.24
--
smiles.repr: Cn1cc(CC(=O)N[C@H]2CC[C@H](CCN3CCc4ccc(OCC(F)(F)F)nc4CC3)OC2)cn1
target.or.system: human recombinant dopamine D3 receptor (Homo sapiens (Human))
number: 9.00
--
smiles.repr: Cn1cc2c(C(=O)N[C@H]3CC[C@H](CCN4CCc5ccc(C6CC6)nc5CC4)CC3)cccc2n1
target.or.system: human recombinant dopamine D3 receptor (Homo sapiens (Human))
number: 9.18
--
smiles.repr: O=C(N[C@H]1CC[C@H](CCN2CCc3ccc(OCC(F)F)nc3C2)CC1)c1cccc2ncccc12
target.or.system: human recombinant dopamine D3 receptor (Homo sapiens (Human))
number: 9.16
--
smiles.repr: Cn1c(C#N)cc2c1CCN(CC[C@H]1CC[C@H](NC(=O)c3cccc4ncccc34)CC1)C2
target.or.system: human recombinant dopamine D3 receptor (Homo sapiens (Human))
number: 9.00
--
smiles.repr: Cn1cc(OCC(=O)N[C@H]2CC[C@H](CCN3CCc4nc(OCC(F)(F)F)sc4CC3)OC2)cn1
target.or.system: human recombinant dopamine D3 receptor (Homo sapiens (Human))
number: 9.17
--
smiles.repr: COc1cc(CC(=O)N[C@H]2CC[C@H](CCN3CCc4ccc(OCC(F)(F)F)nc4CC3)CC2)on1
target.or.system: human recombinant dopamine D3 receptor (Homo sapiens (Human))
number: 10.02
--
smiles.repr: Cn1cc(/C=C/C(=O)N[C@H]2CC[C@H](CCN3CCc4nc(OCC(F)(F)F)sc4CC3)OC2)cn1
target.or.system: human recombinant dopamine D3 receptor (Homo sapiens (Human))
number: 9.89
--
smiles.repr: Cc1cc(OCC(=O)N[C@H]2CC[C@H](CCN3CCc4ccc(OCC(F)(F)F)nc4CC3)CC2)no1
target.or.system: human recombinant dopamine D3 receptor (Homo sapiens (Human))
number: 10.12

###

Consider the following compounds and their measured Ki readings.
target.or.system: human recombinant dopamine D2 receptor (Homo sapiens (Human))
Sequence (P14416 whole entry): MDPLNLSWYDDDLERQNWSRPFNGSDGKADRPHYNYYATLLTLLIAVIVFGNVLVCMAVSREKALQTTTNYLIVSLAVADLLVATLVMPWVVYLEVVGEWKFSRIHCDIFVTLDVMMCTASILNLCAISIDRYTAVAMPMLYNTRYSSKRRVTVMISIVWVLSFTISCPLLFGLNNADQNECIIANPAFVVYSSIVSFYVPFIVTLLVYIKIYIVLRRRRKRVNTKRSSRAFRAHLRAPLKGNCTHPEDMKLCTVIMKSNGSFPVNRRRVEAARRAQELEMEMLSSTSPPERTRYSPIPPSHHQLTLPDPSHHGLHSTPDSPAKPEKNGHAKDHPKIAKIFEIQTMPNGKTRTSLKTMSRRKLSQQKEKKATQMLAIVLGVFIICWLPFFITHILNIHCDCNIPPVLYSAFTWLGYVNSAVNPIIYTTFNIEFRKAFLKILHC
test.description: Test of binding inhibition for the human dopamine D2 receptor ([3H]-Metylspiperone SPA binding)
experimental.conditions: [3H]-Metylspiperone 1.2 nM, Jump-In HEK cell membranes, read-out: hD2_Ki
experimental.readout: Ki (µM)

compound: O=C(N[C@H]1CC[C@H](CCN2CCc3sc(C4=CCOCC4)nc3C2)CC1)c1cccc2ncccc12
value.qualifier: >
number: 1.7
--
compound: Cn1cc2c(C(=O)N[C@H]3CC[C@H](CCN4CCc5nc(OCC(F)F)sc5CC4)CC3)cccc2n1
value.qualifier: >
number: 1.7
--
compound: Cn1cc2c(C(=O)N[C@H]3CC[C@H](CCN4CCc5cnc(CCC(F)(F)F)nc5CC4)CC3)cccc2n1
value.qualifier: >
number: 1.8
--
compound: CC1c2nc(OCC(F)F)sc2CCN1CC[C@H]1CC[C@H](NC(=O)c2cccc3ncccc23)CC1 (stereo partly drawn)
value.qualifier: >
number: 1.7
--
compound: Cc1ncc(CC(=O)N[C@H]2CC[C@H](CCN3CCc4ccc(OC5CCOC5)nc4CC3)CC2)s1 (stereo partly drawn)
value.qualifier: >
number: 1.8
--
compound: O=C(N[C@H]1CC[C@H](CCN2CCc3ccc(OCC(F)F)nc3C2)CC1)c1cccc2ncccc12
value.qualifier: >
number: 1.7
--
compound: O=C(N[C@H]1CC[C@H](CCN2CCc3cnc(CC4CC4)nc3C2)CC1)c1cccc2ncccc12
value.qualifier: >
number: 1.7
--
compound: O=C(N[C@H]1CC[C@H](CCN2CCc3sc(OCC(F)(F)F)nc3C2)OC1)c1cccc2ncccc12
value.qualifier: =
number: 0.65
--
compound: O=C(N[C@H]1C[C@@H]2[C@@H](CCN3CCc4sc(OCC(F)F)nc4C3)[C@@H]2C1)c1cccc2ncccc12
value.qualifier: =
number: 0.86
--
compound: Cc1cc(CC(=O)N[C@H]2CC[C@](F)(CCN3CCc4nc(OCC(F)(F)F)sc4CC3)CC2)no1
value.qualifier: >
number: 1.8
--
compound: Cn1cc2c(C(=O)NN3CCC(CCN4CCc5sc(OCC(F)(F)F)nc5C4)CC3)cccc2n1
value.qualifier: =
number: 1.3
--
compound: O=C1Cc2cccc(C(=O)N[C@H]3CC[C@H](CCN4CCc5nc(OCC(F)F)sc5CC4)CC3)c2N1
value.qualifier: =
number: 0.5
--
compound: Cn1c(C(=O)N[C@H]2CC[C@H](CCN3CCc4nc(OCC(F)(F)F)sc4CC3)CC2)cccc1=O
value.qualifier: =
number: 0.37
--
compound: CC(Oc1nc2c(s1)CCN(CC[C@H]1CC[C@H](NC(=O)c3cccc4nn(C)cc34)CC1)CC2)C(F)(F)F (stereo partly drawn)
value.qualifier: >
number: 1.9
--
compound: Cn1cc2c(C(=O)N[C@H]3CC[C@H](CCN4CCc5sc(CCC(F)(F)F)nc5C4)CC3)cccc2n1
value.qualifier: =
number: 1
